- System: UACC-62
- Assay Procedure: NCI tumour cell line growth inhibition, 48 h
Calls of active or inactive are those of the source. Cut-off read from the data, not from the text of the source: active = GI50 up to about 1.1 µM and inactive = higher.

[
  {
    "Compound": "Cc1nn(C(=O)c2ccncc2)c2c1C(c1ccc(Cl)cc1)SC(=N)N2 (configuration not stated)",
    "GI50": "> 10 µM (inactive)"
  },
  {
    "Compound": "CC(=O)OCC12C(OC(C)=O)C[C@@H](C)C3(CC(c4ccoc4)OC3=O)C1CCC(O)C21CO1 (some centres not stated)",
    "GI50": "> 100 µM (inactive)"
  },
  {
    "Compound": "COc1ccc(C(c2ccccc2)N2C(=O)CCC2C(=O)O)cc1OC (configuration not stated)",
    "GI50": "> 100 µM (inactive)"
  },
  {
    "Compound": "COC(=O)c1ccccc1/N=C/c1ccc(N(CCC#N)S(=O)(=O)c2ccccc2)cc1",
    "GI50": "> 100 µM (inactive)"
  },
  {
    "Compound": "O=C(O)c1c2c(cc3c1CC1(Cc4ccccc4C1=O)C3)CCC2 (configuration not stated)",
    "GI50": "21.8 µM (inactive)"
  },
  {
    "Compound": "COc1ccc(-c2cc(O)c3c(C)cc(C)nc3n2)cc1",
    "GI50": "18.4 µM (inactive)"
  },
  {
    "Compound": "O=c1[nH]c(=S)c2cc3c(=S)[nH]c(=O)n(CCC(c4ccccc4)(c4ccccc4)c4ccccc4)c3nc2n1CCC(c1ccccc1)(c1ccccc1)c1ccccc1",
    "GI50": "> 100 µM (inactive)"
  },
  {
    "Compound": "COC(=O)C1=COC2OC3CC1C2C(C)O3 (configuration not stated)",
    "GI50": "> 100 µM (inactive)"
  },
  {
    "Compound": "C/C=C(/C)C(=O)O[C@H](C[C@@H](C)[C@H]1CC(c2ccoc2)OC1=O)[C@@]1(C)C(=O)CCC2O[C@]21C (some centres not stated)",
    "GI50": "> 100 µM (inactive)"
  },
  {
    "Compound": "CO[C@@]12C[C@@H](C)[C@]34O[C@H]3C[C@]3(C)O[C@]43CC1=C(C)C(=O)O2",
    "GI50": "> 100 µM (inactive)"
  },
  {
    "Compound": "N#Cc1ccc(/C=C2\\Cc3ccccc3C2=O)cc1",
    "GI50": "> 100 µM (inactive)"
  },
  {
    "Compound": "COC(=O)C(=O)C(C(=O)C(=O)Nc1ccccc1C(N)=O)c1nc2ccc([N+](=O)[O-])cc2nc1O (configuration not stated)",
    "GI50": "> 100 µM (inactive)"
  },
  {
    "Compound": "O=C(O)CSC(CC(=O)c1ccc(Cl)cc1)c1ccc(Cl)cc1 (configuration not stated)",
    "GI50": "39.2 µM (inactive)"
  },
  {
    "Compound": "Cc1c(N2CCN(C)CC2)nc2ccc(Cl)cc2c1-c1ccccc1",
    "GI50": "15.7 µM (inactive)"
  },
  {
    "Compound": "COc1ccc(/C=N/N=C(\\N)NO)cc1OC",
    "GI50": "23.3 µM (inactive)"
  },
  {
    "Compound": "O=C(Nc1ccc(Cl)cc1)c1cc(S(=O)(=O)Nc2n[nH]c(=O)n2-c2ccccc2)c(S)cc1Cl",
    "GI50": "> 100 µM (inactive)"
  },
  {
    "Compound": "CCC(C)SC1SCC2C(=O)N(C)C3(CC3C)C(=O)OCC(NC(=O)c3nc4ccccc4cc3O)C(=O)NC(C)C(=O)N(C)C1C(=O)N(C)C1(CC1C)C(=O)OCC(NC(=O)c1nc3ccccc3cc1O)C(=O)NC(C)C(=O)N2C (configuration not stated)",
    "GI50": "1.55e-05 µM (active)"
  }
]
